Please provide measured IC50 for the entries that follow.
# System name: Ectonucleoside triphosphate diphosphohydrolase 2 (Homo sapiens, UniProt Q9Y5L3)
# Sequence (Q9Y5L3 whole entry): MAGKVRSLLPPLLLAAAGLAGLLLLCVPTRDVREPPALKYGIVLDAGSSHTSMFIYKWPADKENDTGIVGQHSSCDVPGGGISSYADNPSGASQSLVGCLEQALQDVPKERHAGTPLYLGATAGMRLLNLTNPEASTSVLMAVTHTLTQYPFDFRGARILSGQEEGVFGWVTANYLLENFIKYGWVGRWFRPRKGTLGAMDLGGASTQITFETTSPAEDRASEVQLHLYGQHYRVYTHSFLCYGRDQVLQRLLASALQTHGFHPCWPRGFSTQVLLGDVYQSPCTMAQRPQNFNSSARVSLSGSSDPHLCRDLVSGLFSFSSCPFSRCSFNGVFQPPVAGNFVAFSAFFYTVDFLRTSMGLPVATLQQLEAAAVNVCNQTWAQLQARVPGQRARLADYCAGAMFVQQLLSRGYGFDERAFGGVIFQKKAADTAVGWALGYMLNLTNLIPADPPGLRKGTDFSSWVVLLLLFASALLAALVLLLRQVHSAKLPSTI
# Assay explanation: Inhibition of NTPDase 2 (unknown origin) expressed in CHO cells using ATP as substrate preincubated for 1 hr followed by substrate addition and measured after 50 mins by PiColorLock gold reagent based colorimetric assay

Answered cases to consult:
> print(dat)
                                   compound  experimental.value
1  C[C@H](Nc1nc(Cl)nc2c1cnn2[C@@H]1O[C@H](COP(=O)(O)CP(=O)(O)O)[C@@H](O)[C@H]1O)c1ccccc1             > 10 µM
2  C[C@H](Nc1cc(Cl)nc2c1cnn2[C@@H]1O[C@H](COP(=O)(O)CP(=O)(O)O)[C@@H](O)[C@H]1O)c1ccccc1F             > 10 µM

Task: Request the reported IC50 associated with C[C@H](Nc1cc(Cl)nc2c1cnn2[C@@H]1O[C@H](COP(=O)(O)CP(=O)(O)O)[C@@H](O)[C@H]1O)c1ccc(F)cc1
Output: > 10 µM

====

# Assay explanation: Cmax in human at 16 mg, iv administered as single infusion for 30 to 60 mins
# Type: ADME, organism-based
# Set-up: route intravenous, dose 16 mg, time 30-60
# Experimental setup: in vivo
Measured property: Cmax
Output should be the measured figure followed by the unit it is expressed in.

Task: Request the reported Cmax associated with C[C@H](Nc1cc(Cl)nc2c1cnn2[C@@H]1O[C@H](COP(=O)(O)CP(=O)(O)O)[C@@H](O)[C@H]1O)c1ccccc1F
Output: 3.91 µg/mL

====

# Assay explanation: Fraction unbound in mouse plasma
# Type: ADME, cell-free
# Parameters: dose or concentration left out as unconfirmed
Please provide measured fraction unbound for the entries that follow.

Answered cases to consult:
> print(dat)
                                   compound  experimental.value
1  C[C@H](Nc1nc(Cl)nc2c1cnn2[C@@H]1O[C@H](COP(=O)(O)CP(=O)(O)O)[C@@H](O)[C@H]1O)c1ccccc1               0.029
2  C[C@H](Nc1cc(Cl)nc2c1cnn2[C@@H]1O[C@H](COP(=O)(O)CP(=O)(O)O)[C@@H](O)[C@H]1O)c1ccc(F)cc1              0.0065

# next compound below
Task: Request the reported fraction unbound associated with C[C@H](Nc1cc(Cl)nc2c1cnn2[C@@H]1O[C@H](COP(=O)(O)CP(=O)(O)O)[C@@H](O)[C@H]1O)c1ccccc1F
Output: 0.0089

====

# Assay explanation: Volume of distribution at steady state in mouse at 0.5 mg/kg, iv
# Type: ADME, organism-based
# Experimental setup: in vivo, read-out: Vdss
Please provide measured Vd for the entries that follow.
Give bare numbers, in L/kg.

Answered cases to consult:
> print(dat)
                                   compound  unit.of.measure  experimental.value
1  C[C@H](Nc1nc(Cl)nc2c1cnn2[C@@H]1O[C@H](COP(=O)(O)CP(=O)(O)O)[C@@H](O)[C@H]1O)c1ccccc1             L/kg                0.18
2  C[C@H](Nc1cc(Cl)nc2c1cnn2[C@@H]1O[C@H](COP(=O)(O)CP(=O)(O)O)[C@@H](O)[C@H]1O)c1ccc(F)cc1             L/kg                0.11

# next molecule below
Task: Request the reported Vd associated with C[C@H](Nc1cc(Cl)nc2c1cnn2[C@@H]1O[C@H](COP(=O)(O)CP(=O)(O)O)[C@@H](O)[C@H]1O)c1ccccc1F
Output: 0.12

====

Please provide measured half-life for the entries that follow.
# Assay explanation: Half life in mouse at 0.5 mg/kg, iv
# Format: ADME, organism-based
# Experimental setup: in vivo
Answers are plain numbers, in h.

Answered cases to consult:
> print(dat)
                                   compound  measured.property  experimental.value
1  C[C@H](Nc1cc(Cl)nc2c1cnn2[C@@H]1O[C@H](COP(=O)(O)CP(=O)(O)O)[C@@H](O)[C@H]1O)c1ccc(F)cc1          half-life                 6.5
2  C[C@H](Nc1cc(Cl)nc2c1cnn2[C@@H]1O[C@H](COP(=O)(O)CP(=O)(O)O)[C@@H](O)[C@H]1O)c1ccccc1F          half-life                 3.5

# next molecule below
Task: Request the reported half-life associated with C[C@H](Nc1nc(Cl)nc2c1cnn2[C@@H]1O[C@H](COP(=O)(O)CP(=O)(O)O)[C@@H](O)[C@H]1O)c1ccccc1
Output: 2

====

# System name: UniProt Q12809
# Sequence (Q12809 whole entry): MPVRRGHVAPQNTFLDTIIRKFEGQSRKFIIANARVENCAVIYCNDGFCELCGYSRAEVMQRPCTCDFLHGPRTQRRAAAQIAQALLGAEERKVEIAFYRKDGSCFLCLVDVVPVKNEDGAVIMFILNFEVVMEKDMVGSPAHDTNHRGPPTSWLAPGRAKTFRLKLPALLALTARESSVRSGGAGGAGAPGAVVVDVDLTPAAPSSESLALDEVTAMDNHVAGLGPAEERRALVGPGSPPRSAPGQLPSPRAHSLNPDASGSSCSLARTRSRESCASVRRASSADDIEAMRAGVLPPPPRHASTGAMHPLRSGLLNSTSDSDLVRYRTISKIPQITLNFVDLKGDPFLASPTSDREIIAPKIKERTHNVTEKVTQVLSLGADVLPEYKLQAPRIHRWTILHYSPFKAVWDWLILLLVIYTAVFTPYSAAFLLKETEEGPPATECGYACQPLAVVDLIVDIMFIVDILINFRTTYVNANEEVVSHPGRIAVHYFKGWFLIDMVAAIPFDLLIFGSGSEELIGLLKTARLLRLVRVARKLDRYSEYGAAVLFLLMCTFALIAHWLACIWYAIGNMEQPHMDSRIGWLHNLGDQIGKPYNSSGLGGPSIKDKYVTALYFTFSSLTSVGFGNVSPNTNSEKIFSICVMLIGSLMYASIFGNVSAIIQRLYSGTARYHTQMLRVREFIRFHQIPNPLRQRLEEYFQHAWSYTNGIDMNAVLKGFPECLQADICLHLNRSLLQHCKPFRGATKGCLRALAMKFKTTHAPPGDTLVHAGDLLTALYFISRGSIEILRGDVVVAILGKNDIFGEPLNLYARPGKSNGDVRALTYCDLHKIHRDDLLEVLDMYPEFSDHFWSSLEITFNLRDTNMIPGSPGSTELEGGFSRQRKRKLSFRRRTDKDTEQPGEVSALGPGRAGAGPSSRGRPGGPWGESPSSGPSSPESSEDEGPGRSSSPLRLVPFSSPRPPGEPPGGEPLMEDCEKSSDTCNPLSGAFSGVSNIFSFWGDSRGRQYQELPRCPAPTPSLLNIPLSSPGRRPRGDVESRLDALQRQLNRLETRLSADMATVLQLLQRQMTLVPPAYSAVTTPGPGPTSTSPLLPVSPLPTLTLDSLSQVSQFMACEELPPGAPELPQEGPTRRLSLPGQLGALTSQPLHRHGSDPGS
Measured property: IC50

Task: Request the reported IC50 associated with C[C@H](Nc1cc(Cl)nc2c1cnn2[C@@H]1O[C@H](COP(=O)(O)CP(=O)(O)O)[C@@H](O)[C@H]1O)c1ccccc1F
Output: > 10 µM

====

Please provide measured IC50 for the entries that follow.
# System name: UniProt:P21589
# Assay explanation: Inhibition of CD73 in human CD8-positive T cells using AMP as substrate preincubated for 60 mins followed by substrate addition and measured after 2.5 hrs by PiColorLock gold reagent based colorimetric assay
# Format: cell-based, CD8-positive T cell
Give bare numbers, in pM.

> print(dat)
                                   compound  experimental.value
1  C[C@H](Nc1nc(Cl)nc2c1cnn2[C@@H]1O[C@H](COP(=O)(O)CP(=O)(O)O)[C@@H](O)[C@H]1O)c1ccccc1                 2.7

# next compound below
Task: Request the reported IC50 associated with C[C@H](Nc1cc(Cl)nc2c1cnn2[C@@H]1O[C@H](COP(=O)(O)CP(=O)(O)O)[C@@H](O)[C@H]1O)c1ccc(F)cc1
Output: 10

====

# System name: 5'-nucleotidase (Homo sapiens)
# Sequence (P21589 whole entry): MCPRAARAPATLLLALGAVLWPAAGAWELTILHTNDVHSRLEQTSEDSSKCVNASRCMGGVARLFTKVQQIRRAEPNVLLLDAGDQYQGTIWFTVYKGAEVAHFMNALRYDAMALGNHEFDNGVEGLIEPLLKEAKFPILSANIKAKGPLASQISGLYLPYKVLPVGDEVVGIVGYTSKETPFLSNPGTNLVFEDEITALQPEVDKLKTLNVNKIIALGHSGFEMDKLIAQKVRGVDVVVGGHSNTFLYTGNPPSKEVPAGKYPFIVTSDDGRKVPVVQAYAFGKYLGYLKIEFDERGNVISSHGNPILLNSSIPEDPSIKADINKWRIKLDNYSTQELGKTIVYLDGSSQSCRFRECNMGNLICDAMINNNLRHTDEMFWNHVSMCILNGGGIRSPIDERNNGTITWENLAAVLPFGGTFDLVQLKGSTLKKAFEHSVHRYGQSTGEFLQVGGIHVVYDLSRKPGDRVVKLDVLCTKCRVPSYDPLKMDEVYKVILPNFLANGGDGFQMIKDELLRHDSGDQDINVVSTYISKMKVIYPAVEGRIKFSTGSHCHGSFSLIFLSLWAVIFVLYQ
# Assay explanation: Inhibition of soluble human CD73
Measured property: IC50 (nM)
Answers are plain numbers, in nM.

Task: Request the reported IC50 associated with C[C@H](Nc1nc(Cl)nc2c1cnn2[C@@H]1O[C@H](COP(=O)(O)CP(=O)(O)O)[C@@H](O)[C@H]1O)c1ccccc1
Output: 0.053

====

# Assay explanation: Half life in human at 25 mg, iv administered as single infusion for 30 to 60 mins
# Type: ADME, organism-based
# Experimental setup: in vivo, time 30-60 min
Measured property: half-life (days)
Give bare numbers, in days.

Task: Request the reported half-life associated with C[C@H](Nc1cc(Cl)nc2c1cnn2[C@@H]1O[C@H](COP(=O)(O)CP(=O)(O)O)[C@@H](O)[C@H]1O)c1ccccc1F
Output: 3.09

====

# Assay explanation: Volume of distribution at steady state in dog at 0.5 mg/kg, iv
# Assay type: ADME, organism-based, Canis lupus familiaris
# Experimental setup: in vivo, read-out: Vdss
Measured property: Vd (L/kg)
Answers are plain numbers, in L/kg.

Answered cases to consult:
> print(dat)
                                   compound  measured.property  unit.of.measure  experimental.value
1  C[C@H](Nc1cc(Cl)nc2c1cnn2[C@@H]1O[C@H](COP(=O)(O)CP(=O)(O)O)[C@@H](O)[C@H]1O)c1ccccc1F                 Vd             L/kg                 1.3
2  C[C@H](Nc1cc(Cl)nc2c1cnn2[C@@H]1O[C@H](COP(=O)(O)CP(=O)(O)O)[C@@H](O)[C@H]1O)c1ccc(F)cc1                 Vd             L/kg                0.63

Task: Request the reported Vd associated with C[C@H](Nc1nc(Cl)nc2c1cnn2[C@@H]1O[C@H](COP(=O)(O)CP(=O)(O)O)[C@@H](O)[C@H]1O)c1ccccc1
Output: 0.84

====

# System name: Ectonucleoside triphosphate diphosphohydrolase 3 (Homo sapiens, UniProt O75355)
# Sequence (O75355 whole entry): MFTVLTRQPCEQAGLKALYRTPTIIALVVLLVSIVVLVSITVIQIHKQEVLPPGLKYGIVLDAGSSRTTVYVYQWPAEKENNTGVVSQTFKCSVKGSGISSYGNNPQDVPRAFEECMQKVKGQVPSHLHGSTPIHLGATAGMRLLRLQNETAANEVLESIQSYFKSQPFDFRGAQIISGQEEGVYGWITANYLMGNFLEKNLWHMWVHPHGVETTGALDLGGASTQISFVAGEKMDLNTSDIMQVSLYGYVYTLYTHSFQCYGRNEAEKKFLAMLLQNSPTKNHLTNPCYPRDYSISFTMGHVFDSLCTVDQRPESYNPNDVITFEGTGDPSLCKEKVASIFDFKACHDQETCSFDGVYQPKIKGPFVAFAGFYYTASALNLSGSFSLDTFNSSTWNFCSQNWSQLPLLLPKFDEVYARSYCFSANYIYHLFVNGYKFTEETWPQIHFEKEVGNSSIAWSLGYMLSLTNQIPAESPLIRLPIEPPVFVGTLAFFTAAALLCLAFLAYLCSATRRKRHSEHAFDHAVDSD
# Assay explanation: Inhibition of NTPDase 3 (unknown origin) expressed in CHO cells using ATP as substrate preincubated for 1 hr followed by substrate addition and measured after 50 mins by PiColorLock gold reagent based colorimetric assay
Measured property: IC50

Answered cases to consult:
> print(dat)
                                   compound  measured.property  experimental.value
1  C[C@H](Nc1nc(Cl)nc2c1cnn2[C@@H]1O[C@H](COP(=O)(O)CP(=O)(O)O)[C@@H](O)[C@H]1O)c1ccccc1               IC50             > 10 µM
2  C[C@H](Nc1cc(Cl)nc2c1cnn2[C@@H]1O[C@H](COP(=O)(O)CP(=O)(O)O)[C@@H](O)[C@H]1O)c1ccc(F)cc1               IC50             > 10 µM

# next compound below
Task: Request the reported IC50 associated with C[C@H](Nc1cc(Cl)nc2c1cnn2[C@@H]1O[C@H](COP(=O)(O)CP(=O)(O)O)[C@@H](O)[C@H]1O)c1ccccc1F
Output: > 10 µM
